# TARGET_OR_TEST_SYSTEM: Neuropeptide Y receptor type 2 (Homo sapiens)
# Sequence (P49146 whole entry): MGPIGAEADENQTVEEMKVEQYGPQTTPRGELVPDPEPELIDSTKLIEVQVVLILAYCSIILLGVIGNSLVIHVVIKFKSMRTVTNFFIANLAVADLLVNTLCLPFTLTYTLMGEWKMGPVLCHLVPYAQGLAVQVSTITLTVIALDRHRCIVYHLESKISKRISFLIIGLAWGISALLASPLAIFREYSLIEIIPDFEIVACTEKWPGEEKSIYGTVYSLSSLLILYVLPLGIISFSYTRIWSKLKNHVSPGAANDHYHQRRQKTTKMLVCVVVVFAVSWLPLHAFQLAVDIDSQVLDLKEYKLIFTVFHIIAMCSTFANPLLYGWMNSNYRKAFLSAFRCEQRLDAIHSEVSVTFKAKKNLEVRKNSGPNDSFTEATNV
# EXPERIMENT_DESCRIPTION: Displacement of [3H]UR-MK299 from human neuropeptide Y Y2 receptor expressed in CHO cells measured after 90 mins by scintillation counting analysis
# Format: cell-based
# COND: read-out: Ki
Starred links: 1 amine or outer side, 2 acyl side, 3 side chain; linkers in the order of their positions; H or OH if unused. Residues, ends and D or L forms follow the SMILES beside them. Groups on a side chain read outwards from the residue. *: point of attachment. Suc = O=C(CCC(=O)[*:2])[*:1]; CO = O=C([*:1])[*:2]; NH(CH2)3NH2 = NCCCN*
PROPERTY_MEASURED: Ki

>  <COMPOUND>
CC(C)C[C@H](NC(=O)[C@@H]1CCCNC(=N)NC(=O)NCCCCNC(=O)CCC(=O)N[C@@H](CCCNC(=N)N)C(=O)N[C@@H](Cc2ccc(O)cc2)C(=O)N1)C(=O)N[C@@H](CCCNC(=N)N)C(=O)N[C@@H](Cc1ccc(O)cc1)C(N)=O

>  <PROPERTY_MEASURED>
Ki

>  <OBSERVED_RESULT>
> 10 µM

$$$$
>  <COMPOUND>
N=C(N)NCCC[C@@H]1NC(=O)CCC(=O)NCCCNC(=O)NC(=N)NCCC[C@@H](C(=O)N[C@@H](Cc2c[nH]c3ccccc23)C(=O)N[C@@H](CCCNC(=N)N)C(=O)N[C@@H](Cc2ccc(O)cc2)C(N)=O)NC(=O)[C@H](Cc2ccc(O)cc2)NC1=O (HELM PEPTIDE1{R.Y.[N=C(NCCC[C@H](N[*:1])C(=O)[*:2])N[*:3]].W.R.Y.[am]}|CHEM1{[O=C(CCC(=O)[*:1])NCCCNC(=O)[*:2]]}$PEPTIDE1,CHEM1,1:R1-1:R1|PEPTIDE1,CHEM1,3:R3-1:R2$$$V2.0)

>  <PROPERTY_MEASURED>
Ki

>  <OBSERVED_RESULT>
> 10 µM

$$$$
>  <COMPOUND>
CC(C)C[C@H](NC(=O)[C@@H]1CCCNC(=N)NC(=O)NCCCCNC(=O)CCC(=O)N[C@@H](CCCCN)C(=O)N[C@@H](Cc2ccc(O)cc2)C(=O)N1)C(=O)N[C@@H](CCCNC(=N)N)C(=O)N[C@@H](Cc1ccc(O)cc1)C(N)=O (HELM PEPTIDE1{K.Y.[N=C(NCCC[C@H](N[*:1])C(=O)[*:2])N[*:3]].L.R.Y.[am]}|CHEM1{[O=C(CCC(=O)[*:1])NCCCCNC(=O)[*:2]]}$PEPTIDE1,CHEM1,1:R1-1:R1|PEPTIDE1,CHEM1,3:R3-1:R2$$$V2.0)

>  <PROPERTY_MEASURED>
Ki

>  <OBSERVED_RESULT>
> 10 µM

$$$$
>  <COMPOUND>
CC(C)C[C@H](NC(=O)[C@H](CCCNC(=N)N)NC(=O)[C@@H]1CCC(=O)N[C@@H](CCCNC(=N)N)C(=O)NCC(=O)N[C@@H](Cc2ccc(O)cc2)C(=O)N1)C(=O)N[C@@H](CCCNC(=N)N)C(=O)N[C@@H](Cc1ccc(O)cc1)C(N)=O (HELM PEPTIDE1{R.G.Y.E.R.L.R.Y.[am]}$PEPTIDE1,PEPTIDE1,1:R1-4:R3$$$V2.0)

>  <PROPERTY_MEASURED>
Ki

>  <OBSERVED_RESULT>
> 10 µM

$$$$
>  <COMPOUND>
CC(C)C[C@H](NC(=O)[C@H](CCCNC(=N)NC(=O)NCCCN)NC(=O)[C@H](Cc1ccc(O)cc1)NC(=O)[C@H](CCCNC(=N)N)NC(=O)CCC(=O)O)C(=O)N[C@@H](CCCNC(=N)N)C(=O)N[C@@H](Cc1ccc(O)cc1)C(N)=O

>  <PROPERTY_MEASURED>
Ki

>  <OBSERVED_RESULT>
> 10 µM

$$$$
>  <COMPOUND>
N=C(N)NCCC[C@H](NC(=O)CCC(=O)O)C(=O)N[C@@H](Cc1ccc(O)cc1)C(=O)N[C@@H](CCCNC(=N)NC(=O)NCCCN)C(=O)N[C@@H](Cc1c[nH]c2ccccc12)C(=O)N[C@@H](CCCNC(=N)N)C(=O)N[C@@H](Cc1ccc(O)cc1)C(N)=O (Suc-RYR([CO-NH(CH2)3NH2])WRY-NH2)

>  <PROPERTY_MEASURED>
Ki

>  <OBSERVED_RESULT>
> 3 µM

$$$$
